biological target: Mitogen-activated protein kinase 3 (Homo sapiens); settings: at 10 µM
Description: Millipore: Percentage of residual kinase activity of MAPK3 at 10uM relative to control. Control inhibitor: ERK Inhibitor II at 30.0uM. Buffer: 25 mM Tris pH 7.5, 0.02 mM EGTA
Test readout: residual activity (%)
Dear colleague, please return just the value in %, with no unit written.

>>> readout_value("CCOc1cc2ncnc(Nc3cccc(Br)c3)c2cc1OCC")
55
>>> readout_value("O=c1c2ccccc2[nH]c(=S)n1CCN1CCC(=C(c2ccc(F)cc2)c2ccc(F)cc2)CC1")
61
>>> readout_value("c1ccc2c(-c3ccncc3)c[nH]c2c1")
87
>>> readout_value("CNc1cc2c(Nc3cccc(Br)c3)ncnc2cn1")
95
>>> readout_value("Cc1ccc(NC2=CC(=O)c3sc(C)nc3C2=O)cc1")
120
>>> readout_value("Ic1cccc(CSc2nnc(-c3ccncc3)o2)c1")
82
>>> readout_value("Oc1n[nH]c2nnc(-c3c(-c4ccccc4)nn4ccccc34)cc12")
93
>>> readout_value("CN(C)c1ccc(/C=C2\\C(=O)Nc3ccccc32)cc1")
69

Next item in the queue.
Reported residual activity for O=C1NC(=O)/C(=C/c2ccc3c(c2)OC(F)(F)O3)S1 : what is it?
77

All figures here come from ChEMBL document CHEMBL2218924.
